Tested on: Streptococcus Aronson
Assay: Agar diffusion test (hole-test)
Assay type: cell-based
Settings: 18-20 hours at 37° C., read-out: MIC, A.D.T., Streptococcus Aronson
reportedMetric: MIC (µg/mL)

- molecule: "CCc1c(O)ccc(C(=O)C(F)(F)F)c1O [C, reference compound]"
  MIC [µg/mL]: 62.5

[I] O=C(c1ccc(O)cc1O)C(F)(F)F [A, 2,4-Dihydroxy-trifluoroacetophenone, reference compound]
[II] CCc1cc(C(=O)C(F)(F)F)c(O)cc1O [B, reference compound]
**Query** // compare measured MIC between I and II ; output the lower one Return value: the label identifying the chosen record.
**Result** II
